For each entry below, report its Herbicidal effects Ab value.
Test system: China jute (Ab)
Method description: Test Example 11: crop plant selectivity by upland field foliage treatment (corn), herbicidal effects
Format: in vivo
Design: scale not given here
Condition details: upland field foliage treatment (corn test), dose 1.6 g ai/10a, 14th day after treatment
Give bare numbers.

Please give Herbicidal effects Ab, item by item, for the list that follows.
1. CCOC(=O)c1cc(-c2ccc(C(F)(F)F)n(C)c2=O)c(F)cc1Cl
2. C#CC(C)Oc1cc(Cl)cc(F)c1-c1ccc(C(F)(F)F)n(C)c1=O (stereo not drawn)
3. COCc1cc2c(-c3ccc(C(F)(F)F)n(C)c3=O)c(F)cc(Cl)c2o1

-- reply
[5, 5, 5]

* * *

System: barnyardgrass (Ec)
Method description: Test Example 1: herbicidal effects by paddy field soil treatment;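 also: grade of growth control; 5 = at least 90%; 4 = 70 to 90%; 3 = 50 to 70%; 2 = 30 to 50%; 1 = 10 to 30%; 0 = under 10%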
Assay type: in vivo
Condition details: 100 g of the active ingredient per 10 ares, 21st day after the application, index 0-5 of Table 47
Quantity name: Herbicidal effects Ec
Answers are plain numbers.

Field: example entries. Status: answers known.
{"Molecule": "Cn1c(C(F)(F)F)ccc(-c2ccc3c(c2)NC(=O)CO3)c1=O", "Herbicidal effects Ec": 5}
{"Molecule": "Cn1c(C(F)(F)F)ccc(-c2cc(C#N)c(Cl)cc2F)c1=O", "Herbicidal effects Ec": 5}
{"Molecule": "COC(=O)c1cc(-c2ccc(C(F)(F)F)n(C)c2=O)c(F)cc1Cl", "Herbicidal effects Ec": 5}
{"Molecule": "C=C(C)CN1C(=O)COc2cc(F)c(-c3ccc(C(F)(F)F)n(C)c3=O)cc21", "Herbicidal effects Ec": 5}
{"Molecule": "CCC(=O)c1cc(-c2ccc(C(F)(F)F)n(C)c2=O)c(F)cc1Cl", "Herbicidal effects Ec": 5}

Please give Herbicidal effects Ec, item by item, for the list that follows.
1. CCCC(O)c1cc(-c2ccc(C(F)(F)F)n(C)c2=O)c(F)cc1Cl (stereo not drawn)
2. Cn1c(C(F)(F)F)ccc(-c2cc(Cl)c(Cl)cc2F)c1=O
3. C#CC(C)Oc1cc(-c2ccc(C(F)(F)F)n(C)c2=O)c(F)cc1Cl (stereo not drawn)
4. CC(=O)c1cc(-c2ccc(C(F)(F)F)n(C)c2=O)c(F)cc1Cl
5. CC=CCN1C(=O)COc2cc(F)c(-c3ccc(C(F)(F)F)n(C)c3=O)cc21
6. Cn1c(C(F)(F)F)ccc(-c2cc(Sc3ncccn3)c(Cl)cc2Cl)c1=O

-- reply
5
5
5
5
5
5

Please give Herbicidal effects Ec, item by item, for the list that follows.
1. CC(C)Oc1cc(-c2ccc(C(F)(F)F)n(C)c2=O)c(Cl)cc1Cl
2. COc1cc(-c2ccc(C(F)(F)F)n(C)c2=O)c(Cl)cc1Cl
3. CCCc1cc2c(Cl)cc(F)c(-c3ccc(C(F)(F)F)n(C)c3=O)c2o1
4. CSc1cc(-c2ccc(C(F)(F)F)n(C)c2=O)c(F)cc1Cl
5. CON=C(C)c1cc(-c2ccc(C(F)(F)F)n(C)c2=O)c(F)cc1Cl
6. CCOCOc1cc(-c2ccc(C(F)(F)F)n(C)c2=O)c(Cl)cc1Cl
7. Cn1c(C(F)(F)F)ccc(-c2cc(OCC(F)F)c(Cl)cc2F)c1=O

-- reply
[5, 5, 5, 5, 5, 5, 5]

* * *

For each entry below, report its Herbicidal effects Ab value.
Test system: China jute (Ab)
Method description: Test Example 4: crop plant selectivity by upland field soil treatment (cotton), herbicidal effects
Assay type: in vivo
Design: scale not given here
Condition details: dose 6.3 g ai/10 a, evaluated 21st day after application
One number for each entry.

Field: example entries. Status: answers known.
{"Compound": "CCOC(=O)c1cc(-c2ccc(C(F)(F)F)n(C)c2=O)c(F)cc1Cl [1-65]", "Herbicidal effects Ab": 5}
{"Compound": "C=CC(C)Oc1cc(-c2ccc(C(F)(F)F)n(C)c2=O)c(F)cc1Cl (centres unmarked) [Compound 1-182]", "Herbicidal effects Ab": 5}
{"Compound": "CON=C(C)c1cc(-c2ccc(C(F)(F)F)n(C)c2=O)c(F)cc1Cl [Compound 1-192]", "Herbicidal effects Ab": 5}
{"Compound": "C#CC(C)Oc1cc(Cl)cc(F)c1-c1ccc(C(F)(F)F)n(C)c1=O (centres unmarked) [1′-5]", "Herbicidal effects Ab": 5}
{"Compound": "C#CCOc1cc(-c2ccc(C(F)(F)F)n(N)c2=O)c(F)cc1Cl [1-178]", "Herbicidal effects Ab": 5}
{"Compound": "CC(C)Oc1cc(-c2ccc(C(F)(F)F)n(C)c2=O)c(F)cc1Cl [Compound No. 1-14]", "Herbicidal effects Ab": 5}
{"Compound": "C=CCOc1cc(-c2ccc(C(F)(F)F)n(C)c2=O)c(F)cc1Cl [1-16]", "Herbicidal effects Ab": 5}

From here, focus on the item given below.
-- ask Fill in: Herbicidal effects Ab of Cc1cc2c(-c3cn(C)c(C(F)(F)F)cc3=O)c(F)cc(Cl)c2o1 [Compound No. 9-1] is ___
-- reply 5

* * *

System: cotton (Go)
Method description: Test Example 4: crop plant selectivity by upland field soil treatment (cotton), phytotoxicity
Format: in vivo
Design: scale not given here
Condition details: dose 6.3 g ai/10 a, evaluated 21st day after application
For each entry below, report its Phytotoxicity Go value.
Answers are plain numbers.

{"Compound": "Cn1c(C(F)(F)F)ccc(-c2c(F)cc(Cl)c3oc(CO)cc23)c1=O", "Observed result": 2}

Please give Phytotoxicity Go, item by item, for the list that follows.
1. CC(C)Sc1cc(-c2ccc(C(F)(F)F)n(C)c2=O)c(F)cc1Cl
2. Cn1c(C(F)(F)F)ccc(-c2cc(OCC(F)F)c(Cl)cc2F)c1=O
3. COCCOCOc1cc(-c2ccc(C(F)(F)F)n(C)c2=O)c(F)cc1Cl
4. C#CC(O)c1cc(-c2ccc(C(F)(F)F)n(C)c2=O)c(F)cc1Cl (stereo not shown)
5. C#CCOc1cc(-c2ccc(C(F)(F)F)n(C)c2=O)c(F)cc1Cl
6. Cn1c(C(F)(F)F)ccc(-c2cc(OCCF)c(Cl)cc2F)c1=O
7. C#CC(C)Oc1cc(-c2ccc(C(F)(F)F)n(C)c2=O)c(F)cc1Cl (stereo not shown)
8. COc1cc(-c2ccc(C(F)(F)F)n(C)c2=O)c(F)cc1Cl

-- reply
0
1
0
1
1
1
0
1

Please give Phytotoxicity Go, item by item, for the list that follows.
1. C=CC(C)Oc1cc(-c2ccc(C(F)(F)F)n(C)c2=O)c(F)cc1Cl (stereo not shown)
2. CCOC(=O)c1cc(-c2ccc(C(F)(F)F)n(C)c2=O)c(F)cc1Cl

-- reply
0
0

Please give Phytotoxicity Go, item by item, for the list that follows.
1. CCOCOc1cc(-c2ccc(C(F)(F)F)n(C)c2=O)c(F)cc1Cl
2. Cn1c(C(F)(F)F)ccc(-c2cc(Oc3ncccn3)c(Cl)cc2Cl)c1=O
3. CC(C)ON=Cc1cc(-c2ccc(C(F)(F)F)n(C)c2=O)c(F)cc1Cl
4. C=C(C)COc1cc(-c2ccc(C(F)(F)F)n(C)c2=O)c(F)cc1Cl
5. C#CC(C)Oc1cc(-c2cn(C)c(C(F)(F)F)cc2=O)c(F)cc1Cl (racemic)
6. CCCc1cc2c(-c3ccc(C(F)(F)F)n(C)c3=O)c(F)cc(Cl)c2o1
7. C#CCOc1cc(Cl)cc(F)c1-c1ccc(C(F)(F)F)n(C)c1=O

-- reply
0
1
0
1
1
0
0

-- ask Fill in: Phytotoxicity Go of C#CC(CC)Oc1cc(-c2ccc(C(F)(F)F)n(C)c2=O)c(F)cc1Cl (racemic) is ___
-- reply 0

* * *

Tested on: green foxtail (Se)
Method description: Test Example 7: crop plant selectivity by upland field soil treatment (corn), herbicidal effects
Assay type: in vivo
Design: scale not given here
Condition details: dose 6.3 g ai/10a, 21st day after application
Quantity name: Herbicidal effects Se
Answers are plain numbers.

Field: example entries. Status: answers known.
{"Compound": "C#CCSc1cc(-c2ccc(C(F)(F)F)n(C)c2=O)c(F)cc1Cl [1-44]", "Quantity name": "Herbicidal effects Se", "Observed result": 5}
{"Compound": "CCC(C)Oc1cc(-c2ccc(C(F)(F)F)n(C)c2=O)c(F)cc1Cl (stereo not drawn) [1-167]", "Quantity name": "Herbicidal effects Se", "Observed result": 5}
{"Compound": "CON=C(C)c1cc(-c2ccc(C(F)(F)F)n(C)c2=O)c(F)cc1Cl [Compound 1-192]", "Quantity name": "Herbicidal effects Se", "Observed result": 5}
{"Compound": "C#CCn1c(=O)sc2cc(F)c(-c3ccc(C(F)(F)F)n(C)c3=O)cc21 [Compound No. 3-1]", "Quantity name": "Herbicidal effects Se", "Observed result": 5}
{"Compound": "CCON=Cc1cc(-c2ccc(C(F)(F)F)n(C)c2=O)c(F)cc1Cl [Compound 1-187]", "Quantity name": "Herbicidal effects Se", "Observed result": 5}
{"Compound": "CCCc1cc2c(-c3ccc(C(F)(F)F)n(C)c3=O)c(F)cc(Cl)c2o1 [Compound 4-3]", "Quantity name": "Herbicidal effects Se", "Observed result": 5}
{"Compound": "Cn1c(C(F)(F)F)ccc(-c2cc(OCC(F)(F)F)c(Cl)cc2F)c1=O [1-155]", "Quantity name": "Herbicidal effects Se", "Observed result": 5}
{"Compound": "CSc1cc(-c2ccc(C(F)(F)F)n(C)c2=O)c(F)cc1Cl [Compound No. 1-87]", "Quantity name": "Herbicidal effects Se", "Observed result": 5}

From here, focus on the item given below.
-- ask Fill in: Herbicidal effects Se of Cn1c(C(F)(F)F)ccc(-c2cc(Br)c(Cl)cc2F)c1=O [1-138] is ___
-- reply 5

Data credit: patent US6472348B1
